For rat primary hepatocytes, measured MMP assays efficacy (%) Rat Hepatocytes is reported for the entries below.
Your answer is read as %, so omit the unit and give the number.

In the examples that follow, each entry is paired with its recorded MMP assays efficacy (%) Rat Hepatocytes.
Cc1cccc(N)c1N :: -56
O=C(CCc1ccc(O)cc1)c1c(O)cc(O)cc1O :: -74

Incoming: Test system rat primary hepatocytes; read-out MMP assays efficacy (%) Rat Hepatocytes; what value for `COP(=S)(OC)Oc1cc(Cl)c(Br)cc1Cl` ?
Outgoing: -111

Incoming: Missing value: MMP assays efficacy (%) Rat Hepatocytes, rat primary hepatocytes, entry `COC(=O)Nc1cccc(OC(=O)Nc2cccc(C)c2)c1` . Fill in?
Outgoing: -95

Incoming: Fill in the recorded MMP assays efficacy (%) Rat Hepatocytes for this molecule, with rat primary hepatocytes as test system: `COc1ccc(C(c2ccc(OC)cc2)C(Cl)(Cl)Cl)cc1`
Outgoing: -75

Incoming: What value of MMP assays efficacy (%) Rat Hepatocytes on rat primary hepatocytes does `O=[N+]([O-])c1ccc(Nc2ccccc2)cc1` have?
Outgoing: -93

Recorded values, source paper PMC6112376.
